molecular target: T1, human CD3 protein (human, UniProt P07766 23-126; P04234 22-105); assay: ELISA, plate-coated CD3;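 further: binding to plate-immobilized human CD3 protein, bound antibody detected with peroxidase-labelled anti-human IgG and TMB, read as absorbance at 450 nm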
T1 construct: ELISA coating protein; also called Human CD3D & CD3E Heterodimer Protein
T1 sequence (P07766 23-126 limits assumed, chain 1 of 2): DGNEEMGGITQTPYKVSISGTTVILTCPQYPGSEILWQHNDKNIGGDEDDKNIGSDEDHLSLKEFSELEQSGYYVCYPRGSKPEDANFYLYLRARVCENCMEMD
T1 sequence (P04234 22-105 limits assumed, chain 2 of 2): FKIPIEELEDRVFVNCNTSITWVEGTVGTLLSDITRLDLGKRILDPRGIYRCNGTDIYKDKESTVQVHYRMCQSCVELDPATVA
MEASUREMENT KIND: log10 EC50 (log10 of the value in ng/mL)
log10 EC50, ng/mL

Please review the entries below; each comes with its answer.
| BINDER | log10 EC50 |
| --- | --- |
| Hu153A6B1-3 (antibody, V domains shown, humanized mAb) VH: EVQLQESGPGLVKPSETLSLTCTVSGGSISSYNIHWVRQPPGKGLEWMGRIRYNGDTSYNSALKSRLTISRDTSKNQFSLKLSSVTAADTAVYYCARGPYGGSREPLFDYWGQGTMVTVSS VL: DIQMTQSPSSLSASVGDRVTITCKTSQNINKYLNWYQQKPGKAPKLLIYTTNNLQTGVPSRFSGSGSGTDFTLTISSLQPEDFATYYCLQHGSGYTFGQGTKLEIK | 0.59 |
| Hu192A7B9-1 (antibody, V domains shown, humanized mAb) VH: EVQLQESGPGLVKPSETLSLTCTVSGGSISSYNVHWIRQPPGKGLEWIGRMRYNGDTSYNSALKSRVTISVDTSKNQFSLKLSSVTAADTAVYYCARGPRGGYYSALFDYWGQGTMVTVSS VL: DIQMTQSPSSLSASVGDRVTITCKASQNINRYLNWYQQKPGKAPKLLIYIANSLQTGVPSRFSGSGSGTDFTLTISSLQPEDFATYYCLQHNSWYTFGQGTKLEIK | 2.17 |
| Hu155A9B1-13 (antibody, V domains shown, humanized mAb) VH: EVQLQESGPGLVKPSETLSLTCTVSGGSISSYNVHWIRQPPGKGLEWIGRVRYNGDTSYNSALKSRVTISVDTSKNQFSLKLSSVTAADTAVYYCARGPYGGSSEPLFDYWGQGTMVTVSS VL: DIQMTQSPSSLSASVGDRVTITCKASQNINKYLNWFQQKPGKAPRLLIYTTNNLQTGIPSRFSGSGSGTDFTLTISSLQPEDFATYFCLQHNSGYTFGQGTKLEIK | 2.09 |
| Hu192A7B9-14 (antibody, V domains shown, humanized mAb) VH: EVQLQESGPGLVKPSETLSLTCTVSGGSISSYNVHWVRQPPGKGLEWIGRMRYNGDTSYNSALKSRVTISRDTSKNQFSLKLSSVTAADTAVYYCARGPRGGYYSALFDYWGQGTMVTVSS VL: DIQMTQSPSSLSASVGDRVTITCKASQNINRYLNWYQQKPGKAPKLLISIANSLQTGIPSRFSGSGSGTDFTLTISSLQPEDFATYYCLQHNSWYTFGQGTKLEIK | 0.70 |

// query Using the record for Hu155A9B1-15 (antibody, V domains shown, humanized mAb) VH: EVQLQESGPGLVKPSETLSLTCTVSGGSISSYNVHWVRQPPGKGLEWMGRVRYNGDTSYNSALKSRLTISRDTSKNQFSLKLSSVTAADTAVYYCARGPYGGSSEPLFDYWGQGTMVTVSS VL: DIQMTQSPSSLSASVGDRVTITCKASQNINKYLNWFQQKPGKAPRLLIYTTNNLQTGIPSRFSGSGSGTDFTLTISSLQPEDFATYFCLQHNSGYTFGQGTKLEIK , state its measured log10 EC50.
// result 0.81
